Target: mTOR (Homo sapiens, UniProt P42345)
Construct: endogenous in cells; host or cells: Jurkat, clone E6-1 (ATCC TIB-152) cell lysate
Experiment: mTOR kinobeads assay (competitive binding in Jurkat cell lysate, immunodetection)
Details: kinobeads assay, Table 6; read-out: Inhibition values (IC50) mTOR
measurement kind: IC50

Problem: Specify IC50 for `CCOC(=O)N1Cc2nc(-c3ccc(NC(=O)NCCNC(C)=O)cc3)nc(N3CCOC[C@@H]3C)c2C1` and stop.
Solution: 0.1 to 1 µM

Problem: # return recorded IC50 for entry `C[C@H]1COCCN1c1nc(-c2ccc(NC(=O)NC3CC3)cc2)nc2c1CCN(CC1CC1)C2`
Solution: < 0.1 µM

Problem: Write down IC50 measured for item `C[C@H]1COCCN1c1nc(-c2ccc(NC(=O)NC3CC3)cc2)nc2c1CN(CC1CCNCC1)C2`
Solution: < 0.1 µM

Problem: Hello, please tell me recorded IC50 for this one: `CCNC(=O)Nc1ccc(-c2nc3c(c(N4CCOC[C@@H]4C)n2)CCN(C(=O)C2CC2)C3)cc1`
Solution: < 0.1 µM

Problem: Give me measured IC50, please, for this molecule: `C[C@H]1COCCN1c1nc(-c2ccc(NC(N)=O)cc2)nc2c1CN(CC1CC1)C2`
Solution: 0.1 to 1 µM

---
Problem: Name the recorded IC50 of the item `CCNC(=O)Nc1cnc(-c2nc3c(c(N4CCOC[C@@H]4C)n2)CN(C(=O)OCC)C3)cn1` in your answer.
Solution: 0.1 to 1 µM

Problem: Specify reported IC50 for the molecule shown: `COC(=O)N1Cc2nc(-c3ccc(NC(=O)NC4CC4)cc3)nc(N3CCOC[C@@H]3C)c2C1`
Solution: < 0.1 µM

Problem: Find the measured IC50 of `C[C@H]1COCCN1c1nc(-c2ccc(NC(N)=O)cc2)nc2c1CN(C)C2` and report it.
Solution: < 0.1 µM

The measured values listed here are drawn from patent US8785457B2.
